assay: Stability of oxytocin in rat caecum slurry, RP-HPLC; conditions: Wistar, rat, pH 5.5, % Drug at T = 2 h, Example 7; oxytocin 1 mg/ml, methyl-ALA / hexyl-ALA 20 mg/ml, aprotinin 1 mg/ml in rat caecum slurry
ASSAY_ENDPOINT: remaining at 2 h, 1 mg/ml (%)
Give bare numbers, in %.

Field remaining at 2 h, 1 mg/ml (entry CC[C@H](C)[C@@H]1NC(=O)[C@H](Cc2ccc(O)cc2)NC(=O)[C@@H](N)CSSC[C@@H](C(=O)N2CCC[C@H]2C(=O)N[C@@H](CC(C)C)C(=O)NCC(N)=O)NC(=O)[C@H](CC(N)=O)NC(=O)[C@H](CCC(N)=O)NC1=O [Oxytocin] ) reads 5
